# procedure-text: MM1S myeloma cell viability, profiling panel, resazurin fluorescence, basal, 24 h, PK04 Diversity Set (AID 1174);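 further: MM1S multiple myeloma cell line; test concentration not given here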
# experimental-context: higher = more signal, called active from +8 up or from −8 down
Calls of active or inactive are those of the source.
endpoint: z-score

Using the record for C=CCN1C(=O)[C@@]2(O[C@@H](CCO)[C@H]([Si](C)(C)c3ccc(OC)cc3)[C@H]2C)c2cc(N(C=O)c3ccccc3)ccc21 , report its z-score.
-8.88 (active)

Which z-score is reported for this molecule? COC(=O)C1=CC(c2ccc(CO)cc2)=CC(c2cccs2)N(C)C=C1C(=O)OC (stereo not drawn)
0.173 (inactive)

Bench note: what z-score did C[N+](C)(C)CCCC[C@@H]1NC(=O)[C@@H]2C[C@H](C(=O)NCCCCCNC(=O)CS)[C@H](c3ccc(O)cc3)N2C1=O show?
0.941 (inactive)

Using the record for C=CCN1C(=O)[C@]2(O[C@H](CCn3cc([C@H](O)c4ccccc4)nn3)[C@@H]([Si](C)(C)c3ccc(OC)cc3)[C@@H]2C)c2cc(N3CCOC3=O)ccc21 , report its z-score.
-0.72 (inactive)

Recorded z-score of C/C=C/[C@@H](CCn1cc(CCO[Si](C(C)C)(C(C)C)C(C)C)nn1)[Si](C)(C)c1ccc(OC)cc1 , please.
1.91 (inactive)

// query z-score value for entry CC(C)(C)OC(=O)CC[C@@]1(C(=O)NCc2ccccc2)N=C(c2ccc(OCCCO)cc2)O[C@@H]1c1ccccc1CN=[N+]=[N-]
0.725 (inactive)

Report z-score for COC(=O)c1c2oc(c1C(=O)OC)C(=O)N[C@@H](C(C)C)Cn1nncc1C1(CCCCC1)NC(=O)N[C@H](CO)CC2 please.
1.4 (inactive)

Requested read-out: z-score. Entry: CC(C)(C)OC(=O)CC[C@@]1(C(=O)N2CCOCC2)N=C(c2ccc(OCCCO)cc2)O[C@@H]1c1ccccc1
1.43 (inactive)
